System: Sindbis virus
experimental.details: Antiviral activity against Sindbis virus infected in african green monkey Vero cells assessed as reduction of virus-induced cytopathogenicity
Format: functional, organism-based
Activity calls are given as the source filed them. The calls are words filed in the database; no cut-off is given here.
reported.metric: Activity

Would you please look over these solved cases?
COc1cc(NC(C)CCCNC(=O)NC2CCCC2)c2ncccc2c1 (stereo not given) : inactive
COc1cc(NC(C)CCCNC(=O)NCc2ccncc2)c2ncccc2c1 (stereo not given) : inactive
COc1cc(NC(C)CCCNC(=O)NCc2ccccc2)c2ncccc2c1 (stereo not given) : inactive
COc1cc(NC(C)CCCNC(=O)NCCc2ccccc2)c2ncccc2c1 (stereo not given) : inactive

Okay, next one:
Ask: Please give the documented Activity of COc1cc(NC(C)CCCNC(=O)NC(c2ccccc2)c2ccccc2)c2ncccc2c1 (stereo not given)
Reply: inactive
